Test system: panel of approximately sixty human tumor cell lines
Assay: NCI-60 human tumor cell lines screen (SRB), full panel
Type: cell-based
Details: one dose, 10 μM; ratio of number of cell lines with percent growth of <0 to total number of cell lines
measurement_kind: Positive Cytotoxic Effect

1. CC(=O)n1cc(/C=c2\sc3ncnn3c2=O)c2ccccc21 [Compound 2l]	0/59
2. C=CCOc1ccccc1/C=c1\sc2ncnn2c1=O [Compound 2c]	0/59
3. O=c1c(=Cc2cccs2)sc2ncnn12 [Compound 2k]	0/56
4. O=c1/c(=C/Nc2cccc(O)c2)sc2ncnn12 [Compound 5e]	0/59
5. COc1ccc(/C=c2\sc3ncnn3c2=O)cc1OC [Compound 2f]	0/57
6. O=C(O)CSc1nnc[nH]1 [Compound 3]	0/59
